# GI50 per entry
Tested on: NCI-H226 lung
Assay: NCI tumour cell line growth inhibition, 48 h

                                   compound  recorded_result
0  Cc1cc2c(-c3nc4ccccn4c3N)c(O)c(O)cc2c(O)c1-c1c(C)cc2c(-c3nc4ccccn4c3N)c(O)c(O)cc2c1O          1.44 µM
1  Nc1nc(/C=C\c2ccccc2)nc(N2CCN(c3ccccc3)CC2)n1          27.9 µM
2  CCNC(=O)Oc1ccc(/C(=C(/C)Cc2ccc(OC)cc2)c2ccc(OCCN(CC)CC)cc2)cc1          2.99 µM

Please find the next compound below.
Q: Need GI50 of O=C(O)C1[O][Sb][O]C(C(=O)O)C1O (centres undefined) , thanks.
Result: > 100 µM
